- ASSAY_PROTOCOL: Toxicokinetics, 14-day intranasal study in rats (Study 700041)
- Format: in vivo
- CONDITION_CONTEXT: male, Sprague Dawley, rat, plasma, inhaled or intranasal, 5 mg/kg/day, Day 14, Male, read-out: AUC0-Tlast [SE]
- Experimental: The animals were monitored for mortality, clinical signs, respiratory measurements, body weights, food consumption, and body temperature. Ophthalmoscopic examinations and respiratory function tests were performed on all animals at scheduled timepoints. Clinical pathology assessments (hematology, coagulation, clinical chemistry, and urinalysis) were evaluated at termination. […] Following dosing, the Main animals were euthanized and subjected to a complete necropsy examination on Day 15. […]
READOUT_NAME: AUC(0-t) (ng·h/mL)
The reply should contain only the number, in ng·h/mL.

Determine from records and report AUC(0-t) for "COc1ccc2[nH]cc(CCN(C)C)c2c1"
114
